The measured values listed here are drawn from patent US20170290774A1.

assay: Tissue concentration of aprepitant by HPLC after oral or inhaled administration to rabbits; type: in vivo, New Zealand albino rabbits; conditions: New Zealand White, rabbit, lung, left inferior lobe, po, 80 mg/kg/day, Lung concentration of aprepitant LIPI (left inferior lobe), Group 3, oral 80 mg/kg per day, seven days; individual cases
Assay Metric: concentration at 7 days (ng/g)

C[C@@H](OC1OCCN(Cc2nc(=O)[nH][nH]2)C1c1ccc(F)cc1)c1cc(C(F)(F)F)cc(C(F)(F)F)c1 (stereo in doubt) [Aprepitant]
3600

---

assay: in vivo; assay type: in vivo, New Zealand albino rabbits; conditions: New Zealand White, rabbit, in vivo, po, 40 mg/kg/day, Lung concentration of aprepitant, Average ± SD of the five lobes per case
Assay Metric: concentration at 7 days (ng/g)

C[C@@H](OC1OCCN(Cc2nc(=O)[nH][nH]2)C1c1ccc(F)cc1)c1cc(C(F)(F)F)cc(C(F)(F)F)c1 (stereo in doubt) [Aprepitant]
4200

---

assay: Tissue concentration of aprepitant by HPLC after oral or inhaled administration to rabbits; format: in vivo, New Zealand albino rabbits; conditions: New Zealand White (albino), rabbit, lung, right middle lobe, inhaled, 0.05 mg/kg/day, Lung concentration of aprepitant LMPD (right middle lobe), Group 5, inhalation (aerosol, olive oil) 0.05 mg/kg per day, seven days; individual cases
Assay Metric: concentration at 7 days (ng/g)

C[C@@H](OC1OCCN(Cc2nc(=O)[nH][nH]2)C1c1ccc(F)cc1)c1cc(C(F)(F)F)cc(C(F)(F)F)c1 (stereo in doubt) [Aprepitant]
1500

---

test: Tissue concentration of aprepitant by HPLC after oral or inhaled administration to rabbits; format: in vivo, New Zealand albino rabbits; conditions: New Zealand White, rabbit, lung, left superior lobe, inhaled, 0.2 mg/kg/day, Lung concentration of aprepitant LSPI, Average ± SD of cases, Group 7, inhalation (aerosol, olive oil) 0.2 mg/kg per day, seven days
Assay Metric: concentration at 7 days (ng/g)

C[C@@H](OC1OCCN(Cc2nc(=O)[nH][nH]2)C1c1ccc(F)cc1)c1cc(C(F)(F)F)cc(C(F)(F)F)c1 (stereo in doubt) [Aprepitant]
6030

---

assay: Tissue concentration of aprepitant by HPLC after oral or inhaled administration to rabbits; type: in vivo, New Zealand albino rabbits; settings: New Zealand White (albino), rabbit, lung, right middle lobe, inhaled, 0.1 mg/kg/day, Lung concentration of aprepitant LMPD (right middle lobe), Group 6, inhalation (aerosol, olive oil) 0.1 mg/kg per day, seven days; individual cases
Assay Metric: concentration at 7 days

C[C@@H](OC1OCCN(Cc2nc(=O)[nH][nH]2)C1c1ccc(F)cc1)c1cc(C(F)(F)F)cc(C(F)(F)F)c1 (stereo in doubt) [Aprepitant]
2900 ng/g

---

test: Tissue concentration of aprepitant by HPLC after oral or inhaled administration to rabbits; assay type: in vivo, New Zealand albino rabbits; settings: New Zealand White, rabbit, lung, left superior lobe, po, 40 mg/kg/day, Lung concentration of aprepitant LSPI (left superior lobe), Group 2, oral 40 mg/kg per day, seven days; individual cases
Assay Metric: concentration at 7 days

C[C@@H](OC1OCCN(Cc2nc(=O)[nH][nH]2)C1c1ccc(F)cc1)c1cc(C(F)(F)F)cc(C(F)(F)F)c1 (stereo in doubt) [Aprepitant]
5300 ng/g
